The reported numbers originate from patent US20200237766A1.

Target: PKM2 (Homo sapiens, UniProt P14618)
Sequence (P14618 whole entry): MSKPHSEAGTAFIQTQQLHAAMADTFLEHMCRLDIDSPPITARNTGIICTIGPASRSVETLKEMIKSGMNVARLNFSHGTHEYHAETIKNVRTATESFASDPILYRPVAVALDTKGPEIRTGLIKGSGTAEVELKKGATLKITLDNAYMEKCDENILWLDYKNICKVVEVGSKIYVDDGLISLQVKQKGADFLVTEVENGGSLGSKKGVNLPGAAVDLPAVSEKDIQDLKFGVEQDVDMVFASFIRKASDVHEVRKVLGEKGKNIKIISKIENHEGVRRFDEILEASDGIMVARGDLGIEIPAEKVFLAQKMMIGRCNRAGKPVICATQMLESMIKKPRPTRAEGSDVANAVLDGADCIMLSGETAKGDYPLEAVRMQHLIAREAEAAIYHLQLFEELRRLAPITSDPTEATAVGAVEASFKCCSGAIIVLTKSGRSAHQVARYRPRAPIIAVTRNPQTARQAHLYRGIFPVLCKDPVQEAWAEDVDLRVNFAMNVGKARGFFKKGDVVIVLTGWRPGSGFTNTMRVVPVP
Assay: PKM2 activation biochemical assay (AC50 / max. response vs fructose 1,6-bisphosphate)
Details: % maximum response in a biochemical assay as compared with Fructose 1,6-bisphosphate
Quick rule: Max. Resp. (%) of at least 80% means yes (1), below that means no (0).

Given the entry COC1CCCN(CCN(Cc2c(N)cccc2Cl)C(=O)c2cc(C(F)(F)F)n[nH]2)C1 (centres unmarked) , answer whether its Max. Resp. (%) meets or surpasses 80%.
yes (1)

Also CC(CN(Cc1ccccc1Cl)C(=O)c1cc(C(F)(F)F)n[nH]1)N1CCCC1 (centres unmarked) ?
yes (1)

What about COc1c(N)cccc1CN(CCN1CCCCCC1)C(=O)c1cc(C(F)(F)F)n[nH]1 ?
yes (1)

And what about the molecule CN1CCC(CCN(Cc2ccccc2Cl)C(=O)c2cc(C(F)(F)F)n[nH]2)CC1 ?
no (0)

Another molecule to check: O=C(c1cc(C(F)(F)F)n[nH]1)N(Cc1ccccc1F)C1CCCCC1
no (0)

Then Nc1cccc(Cl)c1CN(CCN1CCC(O)C1)C(=O)c1cc(C(F)(F)F)n[nH]1 (centres unmarked) ?
yes (1)

Try the molecule O=C(c1cc(C(F)(F)F)n[nH]1)N(CCN1CCCC1)Cc1ccc(Cl)cc1Cl
no (0)
